- EXPERIMENTAL_DETAILS: in vivo
- Parameters: species or system CBi/L and CBi+ mice
- MEASUREMENT_CONDITIONS: female, CBi/L, mouse, po, 15 mg/kg
TEST_READOUT: Cmax (ng/mL)
Unit ng/mL implied. Number only.

# Cmax of "COC(=O)Nc1nc2ccc(C(=O)c3ccccc3)cc2[nH]1" = 1300

----------
- EXPERIMENTAL_DETAILS: in vivo
- Parameters: species or system CBi/L and CBi+ mice
- MEASUREMENT_CONDITIONS: male, CBi/L, mouse, po, 15 mg/kg
TEST_READOUT: AUC(0-t) (ng·h/mL)
Unit ng·h/mL implied. Number only.

# AUC(0-t) of COC(=O)Nc1nc2ccc(C(=O)c3ccccc3)cc2[nH]1 [MBZ, Mebendazole] = 2700

----------
- EXPERIMENTAL_DETAILS: in vivo
- Set-up: species or system CBi/L and CBi+ mice
- MEASUREMENT_CONDITIONS: female, CBi/L, mouse, po, 15 mg/kg
TEST_READOUT: Tmax (min)
Unit min implied. Number only.

# Tmax of "COC(=O)Nc1nc2ccc(C(=O)c3ccccc3)cc2[nH]1" = 39.6

----------
- EXPERIMENTAL_DETAILS: in vivo
- Design: species or system CBi/L and CBi+ mice
- MEASUREMENT_CONDITIONS: male, CBi+, mouse, po, 15 mg/kg
TEST_READOUT: AUC(0-t) (ng·h/mL)
Unit ng·h/mL implied. Number only.

# AUC(0-t) of "COC(=O)Nc1nc2ccc(C(=O)c3ccccc3)cc2[nH]1" = 400

----------
- EXPERIMENTAL_DETAILS: in vivo
- Parameters: species or system CBi/L and CBi+ mice
- MEASUREMENT_CONDITIONS: female, CBi+, mouse, po, 15 mg/kg
TEST_READOUT: Tmax (min)
Unit min implied. Number only.

# Tmax of COC(=O)Nc1nc2ccc(C(=O)c3ccccc3)cc2[nH]1 [MBZ, Mebendazole] = 39.6

----------
- EXPERIMENTAL_DETAILS: in vivo
- Set-up: species or system CBi/L and CBi+ mice
- MEASUREMENT_CONDITIONS: female, CBi+, mouse, po, 15 mg/kg
TEST_READOUT: Cmax (ng/mL)
Unit ng/mL implied. Number only.

# Cmax of "COC(=O)Nc1nc2ccc(C(=O)c3ccccc3)cc2[nH]1" = 200

----------
- EXPERIMENTAL_DETAILS: in vivo
- Parameters: species or system CBi/L and CBi+ mice
- MEASUREMENT_CONDITIONS: male, CBi/L, mouse, po, 15 mg/kg
TEST_READOUT: Cmax
Kindly format the answer as number then unit.

# Cmax of "COC(=O)Nc1nc2ccc(C(=O)c3ccccc3)cc2[nH]1" = 1300 ng/mL
